Taken from patent US8329914B2.

The entries below are paired with their reported pEC50.
molecular target: recombinant human AMPK complex 1 (containing α1β1γ1) (Homo sapiens, UniProt Q13131+Q9Y478); assay: AMPKSAMSF (in vitro AMPK activation assay); conditions: recombinant human AMPK complex 1 (α1β1γ1)
Sequence (Q13131 whole entry): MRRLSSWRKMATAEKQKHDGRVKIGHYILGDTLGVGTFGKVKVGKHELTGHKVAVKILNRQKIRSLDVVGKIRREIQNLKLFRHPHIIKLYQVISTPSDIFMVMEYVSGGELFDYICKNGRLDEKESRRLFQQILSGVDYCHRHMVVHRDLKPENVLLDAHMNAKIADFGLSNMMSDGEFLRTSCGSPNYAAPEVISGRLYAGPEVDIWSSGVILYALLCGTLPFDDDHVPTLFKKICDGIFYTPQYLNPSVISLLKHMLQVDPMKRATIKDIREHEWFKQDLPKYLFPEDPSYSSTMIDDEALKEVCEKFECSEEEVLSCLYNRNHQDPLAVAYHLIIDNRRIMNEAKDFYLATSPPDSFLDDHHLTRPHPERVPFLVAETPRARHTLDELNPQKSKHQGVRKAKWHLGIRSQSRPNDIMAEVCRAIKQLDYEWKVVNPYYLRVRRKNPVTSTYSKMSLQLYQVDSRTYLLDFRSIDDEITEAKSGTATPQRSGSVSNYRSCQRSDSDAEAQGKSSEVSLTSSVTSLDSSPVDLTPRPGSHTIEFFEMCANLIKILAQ
Sequence (Q9Y478 whole entry): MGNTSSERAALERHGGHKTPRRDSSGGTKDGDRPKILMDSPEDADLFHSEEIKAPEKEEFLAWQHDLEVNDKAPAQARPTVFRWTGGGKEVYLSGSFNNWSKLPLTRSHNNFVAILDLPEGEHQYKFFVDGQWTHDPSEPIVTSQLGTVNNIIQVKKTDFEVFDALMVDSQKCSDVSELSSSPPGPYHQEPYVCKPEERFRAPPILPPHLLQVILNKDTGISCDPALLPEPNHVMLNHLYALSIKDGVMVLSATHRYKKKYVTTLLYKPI
Sequence (P54619 whole entry partner): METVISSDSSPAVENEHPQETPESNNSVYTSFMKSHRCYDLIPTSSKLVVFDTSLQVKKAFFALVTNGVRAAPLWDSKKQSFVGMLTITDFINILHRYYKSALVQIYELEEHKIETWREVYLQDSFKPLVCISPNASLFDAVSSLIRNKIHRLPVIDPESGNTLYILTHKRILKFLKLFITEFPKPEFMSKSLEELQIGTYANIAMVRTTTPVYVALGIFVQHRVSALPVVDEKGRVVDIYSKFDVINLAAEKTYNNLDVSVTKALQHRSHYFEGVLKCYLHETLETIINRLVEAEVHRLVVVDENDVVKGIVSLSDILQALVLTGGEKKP
pEC50: −log10 of the molar value.
endpoint label: pEC50

smiles data: O=P(O)(O)CSc1nc2cc(-c3ccc4[nH]ccc4c3)c(Cl)cc2[nH]1
result number: 6.63
//
smiles data: O=P(O)(O)CSc1nc2cc(-c3ccc(-c4cccnc4)cc3)c(Cl)cc2[nH]1
result number: 7.09
//
smiles data: Cn1ccc2cc(-c3cc4nc(SCP(=O)(O)O)[nH]c4cc3Cl)ccc21
result number: 7.24
//
smiles data: O=P(O)(O)CSc1nc2cc(C#Cc3ccc(F)cc3F)c(Cl)cc2[nH]1
result number: 6.74
//
smiles data: O=P(O)(O)CSc1nc2cc(-c3ccc(-c4ccccc4)cc3)c(Cl)cc2[nH]1
result number: 6.86

###

The entries below are paired with their reported Emax.
target: recombinant human AMPK complex 1 (containing α1β1γ1) (Homo sapiens, UniProt Q13131+Q9Y478); test: AMPKSAMSF (in vitro AMPK activation assay); format: biochemical; details: recombinant human AMPK complex 1 (α1β1γ1); basal activity subtracted; read-out: % Maximum AMP Activation of human AMPK Complex 1

compound: O=P(O)(O)CSc1nc2cc(C#Cc3ccc(F)cc3)c(Cl)cc2[nH]1
system under test: recombinant human AMPK complex 1 (containing α1β1γ1) (Homo sapiens, UniProt Q13131+Q9Y478)
Emax: > 60%
//
compound: O=P(O)(O)CSc1nc2cc(C#Cc3ccccn3)c(Cl)cc2[nH]1
system under test: recombinant human AMPK complex 1 (containing α1β1γ1) (Homo sapiens, UniProt Q13131+Q9Y478)
Emax: > 60%
//
compound: O=P(O)(O)CSc1nc2cc(-c3ccc(Cl)c(F)c3)c(Cl)cc2[nH]1
system under test: recombinant human AMPK complex 1 (containing α1β1γ1) (Homo sapiens, UniProt Q13131+Q9Y478)
Emax: > 60%
//
compound: O=P(O)(O)CSc1nc2cc(C#Cc3cccnc3)c(Cl)cc2[nH]1
system under test: recombinant human AMPK complex 1 (containing α1β1γ1) (Homo sapiens, UniProt Q13131+Q9Y478)
Emax: > 60%
//
compound: COc1ccc(-c2ccc(-c3cc4nc(SCP(=O)(O)O)[nH]c4cc3Cl)cc2)cn1
system under test: recombinant human AMPK complex 1 (containing α1β1γ1) (Homo sapiens, UniProt Q13131+Q9Y478)
Emax: > 60%
//
compound: O=P(O)(O)CCc1nc2cc(-c3ccc(-c4ccccc4)cc3)c(Cl)cc2[nH]1
system under test: recombinant human AMPK complex 1 (containing α1β1γ1) (Homo sapiens, UniProt Q13131+Q9Y478)
Emax: > 60%
//
compound: O=P(O)(O)CSc1nc2cc(C#Cc3cccc(F)c3)c(Cl)cc2[nH]1
system under test: recombinant human AMPK complex 1 (containing α1β1γ1) (Homo sapiens, UniProt Q13131+Q9Y478)
Emax: > 60%
//
compound: O=P(O)(O)CSc1nc2cc(-c3ccc(N4CCOCC4)cc3)c(Cl)cc2[nH]1
system under test: recombinant human AMPK complex 1 (containing α1β1γ1) (Homo sapiens, UniProt Q13131+Q9Y478)
Emax: > 60%
//
compound: O=P(O)(O)CSc1nc2cc(Cl)c(C#Cc3ccccc3)cc2[nH]1
system under test: recombinant human AMPK complex 1 (containing α1β1γ1) (Homo sapiens, UniProt Q13131+Q9Y478)
Emax: > 60%
//
compound: O=P(O)(O)CSc1nc2cc(C#Cc3ccc(CO)cc3)c(Cl)cc2[nH]1
system under test: recombinant human AMPK complex 1 (containing α1β1γ1) (Homo sapiens, UniProt Q13131+Q9Y478)
Emax: > 60%
//
compound: O=[P@]1(CSc2nc3cc(-c4ccc(-c5ccccc5)cc4)c(Cl)cc3[nH]2)OCC[C@@H](c2ccncc2)O1
system under test: recombinant human AMPK complex 1 (containing α1β1γ1) (Homo sapiens, UniProt Q13131+Q9Y478)
Emax: > 60%
//
compound: CSc1ccc(-c2cc3nc(SCP(=O)(O)O)[nH]c3cc2Cl)cc1
system under test: recombinant human AMPK complex 1 (containing α1β1γ1) (Homo sapiens, UniProt Q13131+Q9Y478)
Emax: > 60%
//
compound: O=P(O)(O)CSc1nc2cc(C#Cc3ccccc3F)c(Cl)cc2[nH]1
system under test: recombinant human AMPK complex 1 (containing α1β1γ1) (Homo sapiens, UniProt Q13131+Q9Y478)
Emax: > 60%
//
compound: CC(C)(C)C(=O)OCOP(=O)(CSc1nc2cc(-c3ccc(-c4ccccc4)cc3)c(Cl)cc2n1COC(=O)C(C)(C)C)OCOC(=O)C(C)(C)C
system under test: recombinant human AMPK complex 1 (containing α1β1γ1) (Homo sapiens, UniProt Q13131+Q9Y478)
Emax: > 60%
//
compound: O=P(O)(O)CSc1nc2cc(C#Cc3ccc(C(F)(F)F)cc3)c(Cl)cc2[nH]1
system under test: recombinant human AMPK complex 1 (containing α1β1γ1) (Homo sapiens, UniProt Q13131+Q9Y478)
Emax: > 60%
//
compound: O=P(O)(O)CCCc1nc2cc(-c3ccc(-c4ccccc4)cc3)c(Cl)cc2[nH]1
system under test: recombinant human AMPK complex 1 (containing α1β1γ1) (Homo sapiens, UniProt Q13131+Q9Y478)
Emax: > 60%
//
compound: O=C(NC1CC1)c1cc(-c2cc3nc(SCP(=O)(O)O)[nH]c3cc2Cl)ccc1Cl
system under test: recombinant human AMPK complex 1 (containing α1β1γ1) (Homo sapiens, UniProt Q13131+Q9Y478)
Emax: > 60%
//
compound: Cc1cncc(-c2ccc(-c3cc4nc(SCP(=O)(O)O)[nH]c4cc3Cl)cc2)c1
system under test: recombinant human AMPK complex 1 (containing α1β1γ1) (Homo sapiens, UniProt Q13131+Q9Y478)
Emax: > 60%
//
compound: O=P(O)(O)CSc1nc2cc(-c3ccc(Cl)c(Cl)c3)c(Cl)cc2[nH]1
system under test: recombinant human AMPK complex 1 (containing α1β1γ1) (Homo sapiens, UniProt Q13131+Q9Y478)
Emax: > 60%
//
compound: CN(C)C(=O)c1ccc(-c2cc3nc(SCP(=O)(O)O)[nH]c3cc2Cl)cc1
system under test: recombinant human AMPK complex 1 (containing α1β1γ1) (Homo sapiens, UniProt Q13131+Q9Y478)
Emax: > 60%
//
compound: O=[P@@]1(CSc2nc3cc(-c4ccc(-c5ccccc5)cc4)c(Cl)cc3[nH]2)OCC[C@@H](c2ccncc2)O1
system under test: recombinant human AMPK complex 1 (containing α1β1γ1) (Homo sapiens, UniProt Q13131+Q9Y478)
Emax: > 60%
//
compound: COc1ccc(COP(=O)(O)CSc2nc3cc(-c4ccc(-c5ccccc5)cc4)c(Cl)cc3[nH]2)cc1F
system under test: recombinant human AMPK complex 1 (containing α1β1γ1) (Homo sapiens, UniProt Q13131+Q9Y478)
Emax: > 60%
//
compound: CCOP(=O)(CSc1nc2cc(-c3ccc(Br)cc3)c(Cl)cc2[nH]1)OCC
system under test: recombinant human AMPK complex 1 (containing α1β1γ1) (Homo sapiens, UniProt Q13131+Q9Y478)
Emax: > 60%
//
compound: CCC(=O)SCCOP(=O)(O)CSc1nc2cc(-c3ccc(-c4ccccc4)cc3)c(Cl)cc2[nH]1
system under test: recombinant human AMPK complex 1 (containing α1β1γ1) (Homo sapiens, UniProt Q13131+Q9Y478)
Emax: > 60%
//
compound: O=P(O)(O)CSc1nc2cc(C#Cc3ccc(Cl)cc3)c(Cl)cc2[nH]1
system under test: recombinant human AMPK complex 1 (containing α1β1γ1) (Homo sapiens, UniProt Q13131+Q9Y478)
Emax: > 60%
//
compound: CC(C)Oc1ccc(-c2ccc(-c3cc4nc(SCP(=O)(O)O)[nH]c4cc3Cl)cc2)cc1
system under test: recombinant human AMPK complex 1 (containing α1β1γ1) (Homo sapiens, UniProt Q13131+Q9Y478)
Emax: > 60%
//
compound: Cc1cc(-c2cc3nc(SCP(=O)(O)O)[nH]c3cc2Cl)ccc1Cl
system under test: recombinant human AMPK complex 1 (containing α1β1γ1) (Homo sapiens, UniProt Q13131+Q9Y478)
Emax: > 60%
//
compound: CCC(=O)SCCOP(=O)(CSc1nc2cc(-c3ccc(-c4ccccc4)cc3)c(Cl)cc2[nH]1)OCCSC(=O)CC
system under test: recombinant human AMPK complex 1 (containing α1β1γ1) (Homo sapiens, UniProt Q13131+Q9Y478)
Emax: > 60%
//
compound: O=P1(CSc2nc3cc(-c4ccc(-c5ccccc5)cc4)c(Cl)cc3[nH]2)OCCC(c2cccc(Cl)c2)O1 (stereo not drawn)
system under test: recombinant human AMPK complex 1 (containing α1β1γ1) (Homo sapiens, UniProt Q13131+Q9Y478)
Emax: > 60%
//
compound: O=P(O)(O)CSc1nc2cc(C#Cc3ccccc3O)c(Cl)cc2[nH]1
system under test: recombinant human AMPK complex 1 (containing α1β1γ1) (Homo sapiens, UniProt Q13131+Q9Y478)
Emax: > 60%
